B1: RSPH3 (parent)
chain: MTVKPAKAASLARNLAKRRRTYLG

variants of: B1; test: protein stability index of a GFP-peptide fusion (GPS, HEK-293T) (PSI 1-6); higher = more stable; conditions: c terminus: a fixed tail appended;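 note: lentivirally expressed fusions sorted by FACS into six bins by GFP to DsRed ratio, PSI derived from sequencing read proportions per bin multiplied by bin number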
So basically: protein stability index at 2 or higher? That is Met. Lower than 2? That is Not met.

The examples below pair each entry with its known result.
seq_string="MTVKFAKAASLARNLAKRRRTYLG [P5F]" group_label="Not met"
seq_string="MTVKPAMAASLARNLAKRRRTYLG [K7M]" group_label=Met
seq_string="MYVKPAKAASLARNLAKRRRTYLG [T2Y]" group_label=Met
seq_string="MTDKPAKAASLARNLAKRRRTYLG [V3D]" group_label=Met

input: Reported protein stability index at or above 2? MIVKPAKAASLARNLAKRRRTYLG [T2I]
output: Met

input: Is protein stability index for MTVKPAKAASLARNLKKRRRTYLG [A16K] at or above 2?
output: Met
